System: HEK293
Experiment: Cytotoxicity against human HEK293 cells assessed as growth inhibition after 72 hrs by Alamar blue assay
Type: cell-based
Settings: HEK293, 72 h
Structures can show the parent of a compound that is named as a salt.
Measurement Kind: IC50 (µM)

>  <Molecule>
Cn1cc2c3c1C(=O)C(NCCc1ccc(O)cc1)=CC3=NCC2 [MAKALUVAMINE K TFA SALT]

>  <Measurement Kind>
IC50

>  <Unit Name>
µM

>  <Result Qualifier>
=

>  <Experimental Result>
1.1

$$$$
>  <Molecule>
CN1CCc2c[nH]c3c2C1=CC(=O)C3=O [DAMIRONES B]

>  <Measurement Kind>
IC50

>  <Unit Name>
µM

>  <Result Qualifier>
>

>  <Experimental Result>
120

$$$$
>  <Molecule>
C[N+]1=C2C=C(N/C=C/c3ccc(O)cc3)C(=O)c3[nH]cc(c32)CC1 [MAKALUVAMINE L]

>  <Measurement Kind>
IC50

>  <Unit Name>
µM

>  <Result Qualifier>
=

>  <Experimental Result>
1.4

$$$$
>  <Molecule>
Cn1cc2c3c1C(=O)C(N/C=C/c1ccc(O)cc1)=CC3=[N+](C)CC2.O=C([O-])C(F)(F)F [MAKALUVAMINE G]

>  <Measurement Kind>
IC50

>  <Unit Name>
µM

>  <Result Qualifier>
=

>  <Experimental Result>
2

$$$$
>  <Molecule>
Cn1cc2c3c1C(=O)c1[nH]cc(-c4ccc(O)cc4)c1C3=[N+](C)CC2 [TSITSIKAMMAMINE C TRIFLUROACETATE]

>  <Measurement Kind>
IC50

>  <Unit Name>
µM

>  <Result Qualifier>
=

>  <Experimental Result>
3.6

$$$$
>  <Molecule>
C[N+]1=C2C=C(NCCc3ccc(O)cc3)C(=O)c3[nH]cc(c32)CC1.O=C([O-])C(F)(F)F [MAKALUVAMINE J TFA SALT]

>  <Measurement Kind>
IC50

>  <Unit Name>
µM

>  <Result Qualifier>
=

>  <Experimental Result>
1.2

$$$$
>  <Molecule>
CN1CCc2cn(C)c3c2C1=CC(=O)C3=O [DAMIRONES A]

>  <Measurement Kind>
IC50

>  <Unit Name>
µM

>  <Result Qualifier>
>

>  <Experimental Result>
120

$$$$

###

Experiment: Toxicity in Swiss albino mouse for 4 days
Type: organism-based
Details: in vivo

>  <Compound>
Cn1cc2c3c1C(=O)C(N/C=C/c1ccc(O)cc1)=CC3=[N+](C)CC2.O=C([O-])C(F)(F)F [MAKALUVAMINE G]

>  <MTD at 96 h (mg/kg/day)>
8

$$$$

###

Measured selectivity ratio accompanies every entry in the list below.
Test: Selectivity index, ratio of IC50 for human HEK293 cells to IC50 for chloroquine-sensitive Plasmodium falciparum 3D7
Assay type: toxicity, cell-based
Conditions: read-out: Ratio IC50
Structures can show the parent of a compound that is named as a salt.

>  <Compound>
Cn1cc2c3c1C(=O)c1[nH]cc(-c4ccc(O)cc4)c1C3=[N+](C)CC2 [TSITSIKAMMAMINE C TRIFLUROACETATE]

>  <Result Qualifier>
=

>  <selectivity ratio>
276

$$$$
>  <Compound>
Cn1cc2c3c1C(=O)C(NCCc1ccc(O)cc1)=CC3=NCC2 [MAKALUVAMINE K TFA SALT]

>  <Result Qualifier>
=

>  <selectivity ratio>
3

$$$$
>  <Compound>
C[N+]1=C2C=C(NCCc3ccc(O)cc3)C(=O)c3[nH]cc(c32)CC1.O=C([O-])C(F)(F)F [MAKALUVAMINE J TFA SALT]

>  <Result Qualifier>
=

>  <selectivity ratio>
48

$$$$
>  <Compound>
CN1CCc2cn(C)c3c2C1=CC(=O)C3=O

>  <Result Qualifier>
>

>  <selectivity ratio>
63

$$$$
>  <Compound>
Cn1cc2c3c1C(=O)C(N/C=C/c1ccc(O)cc1)=CC3=[N+](C)CC2.O=C([O-])C(F)(F)F

>  <Result Qualifier>
=

>  <selectivity ratio>
55

$$$$
>  <Compound>
C[N+]1=C2C=C(N/C=C/c3ccc(O)cc3)C(=O)c3[nH]cc(c32)CC1

>  <Result Qualifier>
=

>  <selectivity ratio>
35

$$$$
>  <Compound>
CN1CCc2c[nH]c3c2C1=CC(=O)C3=O

>  <Result Qualifier>
>

>  <selectivity ratio>
10

$$$$
